test_target: human Nav1.3 sodium channels (Homo sapiens)
Sequence (Q9NY46 whole entry): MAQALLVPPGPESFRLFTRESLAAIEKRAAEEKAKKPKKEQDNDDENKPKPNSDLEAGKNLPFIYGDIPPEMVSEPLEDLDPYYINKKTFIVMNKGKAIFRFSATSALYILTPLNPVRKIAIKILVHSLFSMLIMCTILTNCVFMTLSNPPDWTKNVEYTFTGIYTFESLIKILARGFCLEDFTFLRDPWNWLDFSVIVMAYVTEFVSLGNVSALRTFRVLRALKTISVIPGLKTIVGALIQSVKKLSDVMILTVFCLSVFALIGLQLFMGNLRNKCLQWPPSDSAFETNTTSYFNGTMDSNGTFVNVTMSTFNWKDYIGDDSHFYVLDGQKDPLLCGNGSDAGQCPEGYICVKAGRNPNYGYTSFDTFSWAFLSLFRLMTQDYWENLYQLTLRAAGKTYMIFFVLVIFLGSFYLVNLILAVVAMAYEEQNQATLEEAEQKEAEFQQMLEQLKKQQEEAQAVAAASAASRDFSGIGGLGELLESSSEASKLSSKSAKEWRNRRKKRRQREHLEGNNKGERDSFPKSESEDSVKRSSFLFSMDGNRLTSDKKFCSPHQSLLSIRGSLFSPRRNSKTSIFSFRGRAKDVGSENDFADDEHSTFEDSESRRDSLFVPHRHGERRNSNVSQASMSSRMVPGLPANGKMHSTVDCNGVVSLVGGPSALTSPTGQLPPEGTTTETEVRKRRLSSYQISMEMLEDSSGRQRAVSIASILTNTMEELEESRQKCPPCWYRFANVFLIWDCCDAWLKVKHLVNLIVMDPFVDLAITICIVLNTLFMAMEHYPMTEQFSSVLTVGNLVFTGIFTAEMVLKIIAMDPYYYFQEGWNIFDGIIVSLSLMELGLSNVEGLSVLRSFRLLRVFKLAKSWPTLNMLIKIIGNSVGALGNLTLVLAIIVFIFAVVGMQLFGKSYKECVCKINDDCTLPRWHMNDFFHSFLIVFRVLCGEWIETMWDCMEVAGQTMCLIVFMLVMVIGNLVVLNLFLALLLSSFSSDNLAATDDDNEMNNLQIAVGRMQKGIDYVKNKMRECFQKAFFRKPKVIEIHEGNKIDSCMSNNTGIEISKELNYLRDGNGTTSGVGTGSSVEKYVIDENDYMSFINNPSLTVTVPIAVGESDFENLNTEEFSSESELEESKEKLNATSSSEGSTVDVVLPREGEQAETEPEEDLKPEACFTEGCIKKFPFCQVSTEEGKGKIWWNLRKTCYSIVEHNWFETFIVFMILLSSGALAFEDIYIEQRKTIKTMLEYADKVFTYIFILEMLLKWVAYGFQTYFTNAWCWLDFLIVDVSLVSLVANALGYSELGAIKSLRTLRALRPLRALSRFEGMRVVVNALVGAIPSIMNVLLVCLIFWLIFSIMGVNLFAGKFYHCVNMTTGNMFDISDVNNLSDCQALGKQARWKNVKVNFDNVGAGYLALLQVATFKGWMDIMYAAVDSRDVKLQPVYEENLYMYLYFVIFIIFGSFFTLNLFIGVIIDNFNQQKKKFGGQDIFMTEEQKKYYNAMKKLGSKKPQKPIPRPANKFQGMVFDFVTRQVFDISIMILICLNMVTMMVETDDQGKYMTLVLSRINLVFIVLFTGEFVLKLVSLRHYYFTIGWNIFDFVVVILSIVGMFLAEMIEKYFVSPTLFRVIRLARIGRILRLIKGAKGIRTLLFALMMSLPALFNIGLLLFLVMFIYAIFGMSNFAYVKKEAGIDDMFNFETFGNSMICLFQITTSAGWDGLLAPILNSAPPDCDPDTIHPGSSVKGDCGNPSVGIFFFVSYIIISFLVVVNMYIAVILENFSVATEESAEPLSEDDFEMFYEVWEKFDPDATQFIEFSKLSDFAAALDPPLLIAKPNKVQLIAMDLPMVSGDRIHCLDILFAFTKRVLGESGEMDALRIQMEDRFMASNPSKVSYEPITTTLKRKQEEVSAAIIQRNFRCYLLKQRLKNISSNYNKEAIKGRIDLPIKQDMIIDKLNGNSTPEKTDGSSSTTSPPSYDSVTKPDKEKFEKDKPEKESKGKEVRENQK
method_summary: whole-cell patch clamp, Nav1.3 in CHO-K1 cells
Type: cell-based
particulars: 250 μmol/L, mean ± SEM, n = 3–6
Listed next: entries and their corresponding Slow inactivation V0.5.
Use mV as the unit, but write only the number.

Problem: Could you please provide reported Slow inactivation V0.5 for NC(=O)N1c2ccccc2C=Cc2ccccc21 [CBZ, carbamazepine] ? Thanks!
Result: −21.56

Problem: Could you please provide reported Slow inactivation V0.5 for COC[C@@H](NC(C)=O)C(=O)NCc1ccccc1 [LCM, lacosamide] ? Thanks!
Result: −37.04

Problem: Could you please provide reported Slow inactivation V0.5 for NC(=O)N1c2ccccc2C[C@H](O)c2ccccc21 [eslicarbazepine] ? Thanks!
Result: −26.61

With those in mind, consider the next molecule.
Problem: Could you please provide reported Slow inactivation V0.5 for NC(=O)N1c2ccccc2CC(=O)c2ccccc21 [OXC, oxcarbazepine] ? Thanks!
Result: −19.47

====

method_summary: plasma and brain concentrations of eslicarbazepine after ESL
Format: in vivo
particulars: NMRI, Swiss, mouse, brain and plasma, other: oral or intraperitoneal
readout_kind: Kp at 60 min

Problem: Could you please provide reported Kp at 60 min for NC(=O)N1c2ccccc2C[C@H](O)c2ccccc21 [eslicarbazepine] ? Thanks!
Result: 3.4 to 5.8

====

test_target: UniProt:Q9NY46
method_summary: whole-cell patch clamp, Nav1.3 in CHO-K1 cells
Type: cell-based
particulars: 250 μmol/L, mean ± SEM, n = 3–6
Listed next: entries and their corresponding Fast inactivation V0.5.
Use mV as the unit, but write only the number.

Problem: Could you please provide reported Fast inactivation V0.5 for NC(=O)N1c2ccccc2C[C@H](O)c2ccccc21 [eslicarbazepine] ? Thanks!
Result: −40.68

Next:
Problem: Could you please provide reported Fast inactivation V0.5 for COC[C@@H](NC(C)=O)C(=O)NCc1ccccc1 [LCM, lacosamide] ? Thanks!
Result: −53.54

Problem: Could you please provide reported Fast inactivation V0.5 for NC(=O)N1c2ccccc2CC(=O)c2ccccc21 [OXC, oxcarbazepine] ? Thanks!
Result: −55.95

Problem: Could you please provide reported Fast inactivation V0.5 for NC(=O)N1c2ccccc2C=Cc2ccccc21 [CBZ, carbamazepine] ? Thanks!
Result: −72.33

====

test_target: hKv7.2 potassium channels (Homo sapiens, UniProt O43526)
method_summary: whole-cell patch clamp, hKv7.2 in CHO cells
readout_kind: pIC50
Scale note: pIC50 = -log10(concentration in M).

Problem: Param request: pIC50 | system hKv7.2 potassium channels (Homo sapiens, UniProt O43526) | item NC(=O)N1c2ccccc2C=Cc2ccccc21 [CBZ, carbamazepine]
Result: 3.24

====

Listed next: entries and their corresponding time constant for entering the slow inactivated state.
test_target: human Nav1.3 sodium channels (Homo sapiens)
method_summary: whole-cell patch clamp, Nav1.3 in CHO-K1 cells
Type: cell-based
particulars: 250 μmol/L; control 20.29 sec
Use s as the unit, but write only the number.

Problem: Could you please provide reported time constant for entering the slow inactivated state for NC(=O)N1c2ccccc2C[C@H](O)c2ccccc21 [eslicarbazepine] ? Thanks!
Result: 14.02

With those in mind, consider the next molecule.
Problem: Could you please provide reported time constant for entering the slow inactivated state for COC[C@@H](NC(C)=O)C(=O)NCc1ccccc1 [LCM, lacosamide] ? Thanks!
Result: 10.91

====

method_summary: plasma and brain concentrations of eslicarbazepine after ESL
Format: in vivo
particulars: Swiss, mouse, brain (organic phase), oral, 100 mg/kg, Brain (organic phase) Eslicarbazepine, Latrunculin A-induced seizures, ESL 100 mg/kg p.o., 60 min
readout_kind: concentration at 60 min (µM)
Use µM as the unit, but write only the number.

Problem: Could you please provide reported concentration at 60 min for NC(=O)N1c2ccccc2C[C@H](O)c2ccccc21 [eslicarbazepine] ? Thanks!
Result: 169

====

test_target: human GRIA1 receptor (Homo sapiens)
Sequence (P42261 19-906): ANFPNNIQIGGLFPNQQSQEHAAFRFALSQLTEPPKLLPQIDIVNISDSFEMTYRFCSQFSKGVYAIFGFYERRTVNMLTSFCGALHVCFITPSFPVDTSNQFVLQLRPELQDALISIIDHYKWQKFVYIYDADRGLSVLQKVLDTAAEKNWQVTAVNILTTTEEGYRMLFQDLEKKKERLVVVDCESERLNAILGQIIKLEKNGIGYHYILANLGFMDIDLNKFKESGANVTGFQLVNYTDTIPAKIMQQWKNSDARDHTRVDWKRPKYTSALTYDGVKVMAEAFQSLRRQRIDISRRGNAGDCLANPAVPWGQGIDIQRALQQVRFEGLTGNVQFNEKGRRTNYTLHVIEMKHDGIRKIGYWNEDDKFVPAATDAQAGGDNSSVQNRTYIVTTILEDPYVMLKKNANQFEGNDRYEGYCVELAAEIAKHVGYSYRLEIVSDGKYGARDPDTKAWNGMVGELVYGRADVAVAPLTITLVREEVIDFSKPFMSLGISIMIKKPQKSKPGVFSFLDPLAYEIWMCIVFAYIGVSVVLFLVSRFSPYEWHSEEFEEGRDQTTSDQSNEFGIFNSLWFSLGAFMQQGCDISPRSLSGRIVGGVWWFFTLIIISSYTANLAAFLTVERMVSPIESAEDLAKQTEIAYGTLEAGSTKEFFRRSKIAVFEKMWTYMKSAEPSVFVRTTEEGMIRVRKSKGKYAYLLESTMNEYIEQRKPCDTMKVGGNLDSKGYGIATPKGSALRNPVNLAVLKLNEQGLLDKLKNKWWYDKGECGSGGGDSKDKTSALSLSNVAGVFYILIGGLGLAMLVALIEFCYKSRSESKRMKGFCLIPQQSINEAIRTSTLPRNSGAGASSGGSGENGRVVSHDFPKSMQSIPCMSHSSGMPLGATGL
method_summary: AMPA-receptor-mediated currents in CHO cells
Assay type: cell-based
readout_kind: pIC50
Scale note: pIC50 = -log10(concentration in M).

Problem: Could you please provide reported pIC50 for NS(=O)(=O)c1cccc2c1c([N+](=O)[O-])cc1nc(O)c(O)nc12 [NBQX] ? Thanks!
Result: 4.72

====

method_summary: plasma and brain concentrations of eslicarbazepine after ESL
Type: in vivo
particulars: NMRI, mouse, brain (organic phase), intraperitoneal, 100 mg/kg, Brain (organic phase) Eslicarbazepine, Corneal kindling, ESL 100 mg/kg i.p., 60 min
readout_kind: concentration at 60 min

Problem: Could you please provide reported concentration at 60 min for NC(=O)N1c2ccccc2C[C@H](O)c2ccccc21 [eslicarbazepine] ? Thanks!
Result: 314 µM

====

method_summary: plasma and brain concentrations of eslicarbazepine after ESL
Assay type: in vivo
particulars: NMRI, mouse, brain (organic phase), intraperitoneal, 300 mg/kg, Brain (organic phase) Eslicarbazepine, Amygdala kindling, ESL 300 mg/kg i.p., 15 min
readout_kind: concentration at 15 min (µM)
Use µM as the unit, but write only the number.

Problem: Could you please provide reported concentration at 15 min for NC(=O)N1c2ccccc2C[C@H](O)c2ccccc21 [eslicarbazepine] ? Thanks!
Result: 273

====

method_summary: plasma and brain concentrations of eslicarbazepine after ESL
Format: in vivo
particulars: Swiss, mouse, brain (lipid fraction), oral, 100 mg/kg, Brain (lipid fraction) Eslicarbazepine, Latrunculin A-induced seizures, ESL 100 mg/kg p.o., 60 min
readout_kind: concentration at 60 min (µM)
Use µM as the unit, but write only the number.

Problem: Could you please provide reported concentration at 60 min for NC(=O)N1c2ccccc2C[C@H](O)c2ccccc21 [eslicarbazepine] ? Thanks!
Result: 303

====

test_target: human GRIN1/GRIN2B NMDA receptor (Homo sapiens, UniProt Q05586+Q13224)
Sequence (Q13224 27-1484, other chains not shown): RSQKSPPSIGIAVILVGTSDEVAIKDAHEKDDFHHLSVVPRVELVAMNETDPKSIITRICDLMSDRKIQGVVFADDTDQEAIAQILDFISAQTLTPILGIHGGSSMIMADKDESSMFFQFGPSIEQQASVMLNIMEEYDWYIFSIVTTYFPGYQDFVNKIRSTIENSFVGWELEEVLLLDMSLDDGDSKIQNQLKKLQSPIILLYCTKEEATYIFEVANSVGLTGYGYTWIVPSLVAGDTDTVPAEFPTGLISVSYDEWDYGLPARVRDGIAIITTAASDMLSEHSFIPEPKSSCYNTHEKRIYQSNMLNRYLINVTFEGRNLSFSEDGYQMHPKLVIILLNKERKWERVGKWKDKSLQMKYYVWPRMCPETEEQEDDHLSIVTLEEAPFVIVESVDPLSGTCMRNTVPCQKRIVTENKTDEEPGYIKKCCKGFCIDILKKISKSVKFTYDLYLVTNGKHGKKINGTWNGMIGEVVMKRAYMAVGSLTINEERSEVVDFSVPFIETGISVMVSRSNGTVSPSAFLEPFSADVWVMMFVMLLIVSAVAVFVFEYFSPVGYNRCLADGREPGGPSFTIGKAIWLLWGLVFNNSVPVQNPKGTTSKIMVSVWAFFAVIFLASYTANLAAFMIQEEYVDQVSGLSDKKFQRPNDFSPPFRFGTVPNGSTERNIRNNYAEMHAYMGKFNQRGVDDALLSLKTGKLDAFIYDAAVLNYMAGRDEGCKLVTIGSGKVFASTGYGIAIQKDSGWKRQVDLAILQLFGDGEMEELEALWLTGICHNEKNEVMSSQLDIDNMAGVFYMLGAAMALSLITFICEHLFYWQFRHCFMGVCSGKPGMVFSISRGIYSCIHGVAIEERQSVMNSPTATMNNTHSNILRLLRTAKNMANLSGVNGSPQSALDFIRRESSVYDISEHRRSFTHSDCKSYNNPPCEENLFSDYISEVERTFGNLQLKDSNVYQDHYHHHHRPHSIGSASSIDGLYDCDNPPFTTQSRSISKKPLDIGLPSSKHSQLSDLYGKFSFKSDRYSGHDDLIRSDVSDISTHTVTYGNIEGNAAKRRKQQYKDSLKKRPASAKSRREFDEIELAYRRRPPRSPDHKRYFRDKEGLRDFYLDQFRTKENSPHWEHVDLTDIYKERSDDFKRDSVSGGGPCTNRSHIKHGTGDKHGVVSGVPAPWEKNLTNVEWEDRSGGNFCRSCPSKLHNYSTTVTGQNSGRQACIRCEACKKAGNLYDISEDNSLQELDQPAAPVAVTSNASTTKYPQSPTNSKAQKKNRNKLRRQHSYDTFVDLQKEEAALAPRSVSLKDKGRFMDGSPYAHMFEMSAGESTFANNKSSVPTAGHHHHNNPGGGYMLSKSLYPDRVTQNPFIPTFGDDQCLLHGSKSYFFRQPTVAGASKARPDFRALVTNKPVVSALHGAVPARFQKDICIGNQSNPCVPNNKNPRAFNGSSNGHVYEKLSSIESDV
method_summary: submaximal NMDA-receptor-mediated currents in HEK cells
Type: cell-based
particulars: read-out: IC50, NMDA receptor-mediated currents; submaximal currents, HEK cells GRIN1/GRIN2B
readout_kind: IC50

Problem: Could you please provide reported IC50 for N[C@H](CCCP(=O)(O)O)C(=O)O [D-AP5, D-(−)-2-amino-5-phosphonopentanoic] ? Thanks!
Result: 7 µM
